Measured values drawn from patent US20230000812A1 for this set.

test: In vitro human plasma metabolism (enzymolysis kinetics test in human plasma); settings: human plasma, 37° C., 120 min
# Remaining Amount of the Prodrug Compound (%) per entry
readout-kind: Remaining Amount of the Prodrug Compound (%)

molecule="CC(C)Cc1ccc([C@H](C)C(=O)OC(C)OC(=O)OC(C)C)cc1 (stereo partly shown)" measured_number=78.6
molecule="CCOC(=O)OC(C)OC(=O)[C@@H](C)c1ccc(CC(C)C)cc1 (stereo partly shown)" measured_number=40.5
molecule="CC(=O)OC(C)OC(=O)[C@@H](C)c1ccc(-c2ccccc2)c(F)c1 (stereo partly shown) [S-FPA, reference compound]" measured_number=37.4
molecule="CCOC(=O)OC(CC)OC(=O)[C@@H](C)c1ccc(CC(C)C)cc1 (stereo partly shown)" measured_number=45.0
